Numbers sourced from patent US20240343803A1.

# subjectOfTest: T1, human PVRIG-mFc protein (Acro, PVG-H5253) (human, UniProt Q6DKI7 41-171, limits assumed)
# T1 construct: extracellular domain; Bought protein; also called PVRIG-ECD-mFc; not shown: mouse Fc tag of the bought protein
# T1 sequence (looked up): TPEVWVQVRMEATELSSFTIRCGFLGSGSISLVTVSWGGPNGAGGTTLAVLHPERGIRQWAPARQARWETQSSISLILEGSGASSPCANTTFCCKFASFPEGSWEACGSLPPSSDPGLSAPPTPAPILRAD
# procedureDetails: FACS blocking of PVRIG-mFc binding to CHO-K1-CD112 cells; competitor CD112
propertyMeasured: % AUC to parental Ab (%)
Just the number please, in %, no unit attached.

Here is how some binders turned out for % AUC to parental Ab.
PVRIG-A118-H5 (Fc fusion, VHH-human IgG1 Fc format is stated for the parental VHH antibodies; not restated for the humanized variants; also called A118.VH5; not shown: human IgG1 hinge-CH2-CH3 (Fc)) EVQLVESGGGLVQPGGSLRLSCAASETYFDLYVMGWYRQAPGKDRELVATITYTGSIKYVDSVKGRFTISRGDAKNSVYLQMNSLRAEDTAVYYCNADPSGLGRKVYWGQGTMVTVSS :: 107
PVRIG-A118-H1 (Fc fusion, VHH-human IgG1 Fc format is stated for the parental VHH antibodies; not restated for the humanized variants; also called A118.VH1; not shown: human IgG1 hinge-CH2-CH3 (Fc)) EVQLVESGGGLVQPGGSLRLSCAASETYFDLYVMGWYRQAPGKDRELVATITYTGSIYYVDSVKGRFTISRDNAKNSLYLQMNSLRAEDTAVYYCNADPSGLGRKVYWGQGTMVTVSS :: 101
PVRIG-A118-H7 (Fc fusion, VHH-human IgG1 Fc format is stated for the parental VHH antibodies; not restated for the humanized variants; also called A118.VH7; not shown: human IgG1 hinge-CH2-CH3 (Fc)) EVQLVESGGGLVQPGGSLRLSCAASETYFDLYVMGWYRQAPGKDRELVATITYTGSIKYVDSVKGRFTISRGDAKNSLYLQMNSLRAEDTAVYFCNADPSGLGRKVYWGQGTMVTVSS :: 104

Please turn your attention to the following entry.
Recorded result, PVRIG-A50-H1e (Fc fusion, VHH-human IgG1 Fc format is stated for the parental VHH antibodies; not restated for the humanized variants; also called VH1e; not shown: human IgG1 hinge-CH2-CH3 (Fc)) EVQLVESGGGLVQPGGSLRLSCAASGFTFSYYDMSWVRQAPGKGLEWVSTINSNAGRTSYVDSVKGRFTISRDNSKNTLYLQMNSLRAEDTAVYYCVEGDPHNFGLESLSLRDFGSWGQGTMVTVSS , % AUC to parental Ab: 103
